test system: LOX IMVI melanoma; assay: NCI tumour cell line growth inhibition, 48 h
endpoint: TGI

In the examples that follow, each entry is paired with its recorded TGI.
compound	test result
CC(C)(CN1CCCCC1)C(=O)/C=C/c1ccc(Br)cc1	4.63 µM
CC(=O)NC1C(OCC(=O)NCCNc2ccc([N+](=O)[O-])c3[nH]c4ccccc4c(=O)c23)C(O)C(CO)OC1(C)OCc1ccccc1 (stereo not given)	> 100 µM
CCOC(=O)C1(C)CCC(C(C(=O)O)C(=O)O)CC1=O (stereo not given)	> 100 µM
CC1=NN(c2nc(N)nc(C(C)Cl)n2)C(C)(C)C1 (stereo not given)	> 100 µM
S=C1SCN(Cc2ccccc2)CN1Cc1ccco1	10.2 µM
CC12OC(=O)C(C#N)C1(C)C1C(=O)CCCC12 (stereo not given)	> 100 µM

Quick batch: TGI for everything below.
1. COc1ccc(OC)c2sc(N3C(=O)/C(=C/c4cccc(Oc5ccccc5)c4)N=C3c3ccccc3)nc12
2. O=C(c1ccccc1)C1(Br)S(=O)(=O)OCCOS1(=O)=O
3. COc1ccc(C(O)c2cc3c(N)c(C(=O)Nc4cccc5ccccc45)sc3nc2C)cc1 (stereo not given)
4. O=[N+]([O-])c1ccc(/C=N/Nc2nc3ccccc3[nH]2)o1

Out:
["> 100 µM", "> 100 µM", "> 39.9 µM", "35 µM"]

----------
Kindly supply the reported TGI values for the records listed here.
system: HCT-15 colon; assay: NCI tumour cell line growth inhibition, 48 h
Numbers only, in µM.

In the examples that follow, each entry is paired with its recorded TGI.
compound	unit of measure	TGI
CCSCC1CC(O)(c2ccccc2)C(c2ccccc2)C(c2ccc(F)cc2)O1 (stereo unspecified)	µM	3.99
COc1ccc(CCCCNCc2cccc(CNCCCCc3ccc(OC)cc3)c2)cc1	µM	3.55
C1CSCCSCCCS[C@@H]2CCCCC2SC1 (stereo partly specified)	µM	28.8
Cc1ccc(S(=O)(=O)N(CC(O)COc2ccccc2)c2c(F)cccc2F)cc1 (stereo unspecified)	µM	37

Here is another compound to look at.
In: Item: C[C@H]1CC[C@@]2(OC1)O[C@H]1C[C@H]3[C@@H]4CC[C@@H]5C[C@@H](OC6OC(CO)C(O)C(O)C6OC6OC(CO)C(O)C(O)C6O)CC[C@]5(C)[C@H]4CC[C@]3(C)[C@H]1[C@@H]2C (stereo partly specified) Test system: HCT-15 colon Read-out: TGI Value: ?
Out: 3.67

----------
system: NCI-H460 lung; assay: NCI tumour cell line growth inhibition, 48 h
Kindly supply the reported TGI values for the records listed here.

In the examples that follow, each entry is paired with its recorded TGI.
molecule	TGI
C#Cc1ccc(-n2c(/C=C/c3ccc(O)cc3)nc3ncccc3c2=O)cc1	14.1 µM
Cc1ccc(S[C@@](C=O)(NC(=O)OCc2ccccc2)C(F)(F)F)cc1	79.3 µM
C=C(CN1CCc2[nH]c3ccc(F)cc3c2C1)c1ccc(C(=O)Nc2ccccc2N)cc1	17.2 µM
COC(=O)/C=C(\C(=O)OC)c1cc(C)c2cc(C(C)C)ccc(C)c1-2	> 100 µM
Cc1noc(NC(=O)Nc2ccccc2F)c1C#N	> 34.2 µM

Quick batch: TGI for everything below.
1. COc1cc(/C=C/c2cc(/C=C/c3ccc(O)c(OC)c3)n(C(=O)c3ccccc3Br)n2)ccc1O
2. CC(=O)c1ccc(N=NN2CCCC2)cc1
3. N#Cc1ccccc1OCCOc1ccccc1C#N
4. COc1ccccc1C1c2cc3c(cc2OC2(OC)COC(=O)C12)OCO3 (stereo unspecified)
5. CN(NC1=NCCO1)c1ccc2ccccc2c1
6. CN=c1sc2c(n1C)C(=O)c1ccccc1C2=O

Out:
["> 100 µM", "> 100 µM", "> 100 µM", "> 100 µM", "> 100 µM", "8.01 µM"]
